test: qHTS assay for small molecule agonists of retinoid X receptor alpha signaling (AID 588544)
condition_label: HEK293T RXRa-UAS-bla, beta-lactamase reporter, 18 h; 530 nm emission
Records with an inconclusive call do not appear.
What max response was measured for each of the following?
Use % as the unit, but write only the number.

Query string: Give the reported value of max response for this record: `Nc1ccc([N+](=O)[O-])cc1N`
Result string: -12.1

Query string: Give the reported value of max response for this record: `CN=C=O`
Result string: -13

Query string: Give the reported value of max response for this record: `Oc1ccc(Cl)c(Cl)c1Cl`
Result string: -5.29

Query string: Give the reported value of max response for this record: `C=CCCC#N`
Result string: -8.63

Query string: Give the reported value of max response for this record: `C=CC=O`
Result string: -0.594

Query string: Give the reported value of max response for this record: `Nc1ccc(Cl)c(Cl)c1`
Result string: 3.91

Query string: Give the reported value of max response for this record: `CCC#N`
Result string: 3.48

Query string: Give the reported value of max response for this record: `O=NN1CCCCC1`
Result string: 5.16

Query string: Give the reported value of max response for this record: `N#CC(Br)Br`
Result string: 0.349

Query string: Give the reported value of max response for this record: `CCCCOC(C)=O`
Result string: 6.81

Query string: Give the reported value of max response for this record: `CCCC[N+](=O)[O-]`
Result string: -5.28

Query string: Give the reported value of max response for this record: `Cc1cccc(N)c1C`
Result string: -3.13

Query string: Give the reported value of max response for this record: `Cl/C=C\Cl`
Result string: -20.4

Query string: Give the reported value of max response for this record: `BrC(Br)Br`
Result string: 0.74

Query string: Give the reported value of max response for this record: `Clc1ccccc1`
Result string: -8.37

Query string: Give the reported value of max response for this record: `Nc1ccc(-c2ccc(N)cc2)cc1`
Result string: -10.1

Query string: Give the reported value of max response for this record: CC(C#N)CCC#N (stereo unspecified)
Result string: -11.4

Query string: Give the reported value of max response for this record: `C=CCBr`
Result string: -11.7

Query string: Give the reported value of max response for this record: Cc1coc2c1CCC(C)C2 (stereo unspecified)
Result string: -8.64

Query string: Give the reported value of max response for this record: ClCC(Br)CBr (stereo unspecified)
Result string: -9.36

Query string: Give the reported value of max response for this record: `Clc1ccc(C(Cl)(Cl)Cl)cc1Cl`
Result string: -3.09

Query string: Give the reported value of max response for this record: `ClC(Cl)C(Cl)Cl`
Result string: -4.19

Query string: Give the reported value of max response for this record: `Clc1cccc(Cl)c1`
Result string: 5.35

Query string: Give the reported value of max response for this record: `CC(=O)CCC(C)=O`
Result string: 0.0938

Query string: Give the reported value of max response for this record: `COc1ccc(C=O)cc1`
Result string: -0.469

Query string: Give the reported value of max response for this record: `ClC(Cl)Br`
Result string: -4.86

Query string: Give the reported value of max response for this record: `CSSC`
Result string: 1.16

Query string: Give the reported value of max response for this record: `O=C(O)c1cc(Cl)ccc1Cl`
Result string: -6.74

Query string: Give the reported value of max response for this record: `CCN(CC)CCO`
Result string: -4.75

Query string: Give the reported value of max response for this record: `CCCCCCCCCCCOC(=O)c1ccccc1C(=O)OCCCCCCCCCCC`
Result string: -1.51

Query string: Give the reported value of max response for this record: CC(Cl)CCl (stereo unspecified)
Result string: -14.1

Query string: Give the reported value of max response for this record: `BrCC(Br)(Br)Br`
Result string: 19.6

Query string: Give the reported value of max response for this record: `CC(C)[N+](=O)[O-]`
Result string: 5.89

Query string: Give the reported value of max response for this record: `ClCC(Cl)Cl`
Result string: -11.1

Query string: Give the reported value of max response for this record: `ClCCCCl`
Result string: 1.73

Query string: Give the reported value of max response for this record: `CC(C)Br`
Result string: -8.42

Query string: Give the reported value of max response for this record: `ClCCOCOCCCl`
Result string: -19.5

Query string: Give the reported value of max response for this record: `ClCCOCCCl`
Result string: 0.666

Query string: Give the reported value of max response for this record: N#CC(O)c1ccccc1 (stereo unspecified)
Result string: -0.409

Query string: Give the reported value of max response for this record: C=CCOCC1CO1 (stereo unspecified)
Result string: 1.34

Query string: Give the reported value of max response for this record: C1CC2OC2CC1C1CO1 (stereo unspecified)
Result string: -2.62

Values were extracted from PubChem BioAssay (NCATS).
